# key: entry, value: inhibition at 3 µM
SYSTEM UNDER TEST: recombinant human PAI-1 (Homo sapiens, UniProt P05121)
Sequence (P05121 24-402): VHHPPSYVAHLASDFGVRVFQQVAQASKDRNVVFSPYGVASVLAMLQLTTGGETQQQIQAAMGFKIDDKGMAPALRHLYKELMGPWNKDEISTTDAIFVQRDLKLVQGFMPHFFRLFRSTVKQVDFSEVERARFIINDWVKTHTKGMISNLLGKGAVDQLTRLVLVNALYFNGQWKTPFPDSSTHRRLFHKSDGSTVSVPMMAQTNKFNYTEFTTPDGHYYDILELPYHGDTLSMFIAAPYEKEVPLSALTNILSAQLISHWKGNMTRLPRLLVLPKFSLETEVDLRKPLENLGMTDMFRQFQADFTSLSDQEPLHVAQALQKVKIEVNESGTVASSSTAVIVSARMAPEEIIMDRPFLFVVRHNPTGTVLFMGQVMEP
PROCEDURE SUMMARY: Test Example 2: Human PAI-1 Inhibitory Activity (pH 7.4 HEPES buffer, 10 minutes incubation with two-chain tPA)
Type: biochemical
Design: purchased Molecular Innovations, Inc
CONDITIONS: read-out: Inhibition Rate of PAI-1 Activity (%)
Please give a number only; it is taken to be in %.

Item O=C(O)c1cc(-c2ccc(OC(F)(F)F)cc2)ccc1OCc1ccccc1 [Compound 401] has what recorded inhibition at 3 µM?
15

---

# key: entry, value: inhibition at 3 µM
SYSTEM UNDER TEST: recombinant human PAI-1 (Homo sapiens)
PROCEDURE SUMMARY: Test Example 2: Human PAI-1 Inhibitory Activity (pH 7.4 HEPES buffer, 10 minutes incubation with two-chain tPA)
Assay type: biochemical
Set-up: purchased Molecular Innovations, Inc
CONDITIONS: read-out: Inhibition Rate of PAI-1 Activity (%)

Field: example entries. Status: answers known.
SMILES NOTATION	inhibition at 3 µM
CC(C)(C)[C@H]1CC[C@@H](CN(C(=O)C(=O)O)c2ccc(-c3ccc(OC(F)(F)F)cc3)cc2)CC1	> 99%
CCCCc1ccc(Oc2cc(-c3ccc(OC(F)(F)F)cc3)ccc2/C=C/C(=O)O)cc1	> 99%
CCCCCCCOc1cc(-c2ccc(OC(F)(F)F)cc2)ccc1N(CCCCc1ccccc1)C(=O)C(=O)O	> 99%

Param readout= inhibition at 3 µM; system= recombinant human PAI-1 (Homo sapiens); entry= O=C(O)C(=O)N(CCCCc1ccccc1)c1cc(-c2ccc(OC(F)(F)F)cc2)ccc1OCCCCCO ; returns value.
> 99%

---

SYSTEM UNDER TEST: recombinant human PAI-1 (Homo sapiens)
PROCEDURE SUMMARY: Test Example 2: Human PAI-1 Inhibitory Activity (pH 7.4 HEPES buffer, 10 minutes incubation with two-chain tPA)
Assay type: biochemical
Design: purchased Molecular Innovations, Inc
CONDITIONS: read-out: Inhibition Rate of PAI-1 Activity (%)
ENDPOINT NAME: inhibition at 0.1 µM (%)
Please give a number only; it is taken to be in %.

Field: example entries. Status: answers known.
SMILES NOTATION	inhibition at 0.1 µM, %
CCCCCCCCCOc1ccc(N(CCCCc2ccccc2)C(=O)C(=O)O)cc1-c1ccc(OC(F)(F)F)cc1	66
O=C(O)C(=O)N(CCCCc1ccccc1)c1cc(-c2ccc(OC(F)(F)F)cc2)ccc1OCCCC1CCCC1	2
CCCCCCCCCCOc1ccc(-c2ccc(OC(F)(F)F)cc2)cc1N(CCCCc1ccccc1)C(=O)C(=O)O	41
CC(C)(C)c1ccc(Sc2cc(-c3ccc(OC(F)(F)F)cc3)ccc2CCC(=O)O)cc1	20

Param readout= inhibition at 0.1 µM; system= recombinant human PAI-1 (Homo sapiens); entry= CC(C)(C)[C@H]1CC[C@H](CN(C(=O)C(=O)O)c2ccc(-c3ccc(OC(F)(F)F)cc3)cc2)CC1 ; returns value.
6

Param readout= inhibition at 0.1 µM; system= recombinant human PAI-1 (Homo sapiens); entry= CCCCN(CC(=O)O)c1cc(-c2ccc(OC(F)(F)F)cc2)ccc1Oc1ccc(C(C)(C)C)cc1 ; returns value.
18

Param readout= inhibition at 0.1 µM; system= recombinant human PAI-1 (Homo sapiens); entry= CC(C)(C)c1ccc(Oc2cc(-c3cccc(C(F)(F)F)c3)ccc2CCC(=O)O)cc1 ; returns value.
12

Sourced from patent EP2272817A1
